Values from PubChem BioAssay (NCI)

- Test system: NCI-H226 lung
- assay summary: NCI tumour cell line growth inhibition, 48 h
measurement type: TGI

Prompt line: In one line, give reported TGI of the entry CCOC(=O)C[n+]1ccc2c([nH]c3cc(OC)ccc32)c1C .
Response line: > 100 µM

Prompt line: In one line, give reported TGI of the entry CCOC(=O)N1C(=S)C(C(=O)OC)(C(=O)OC)N=C1C .
Response line: > 100 µM

Prompt line: In one line, give reported TGI of the entry COc1cc(C2(C)SCCCS2)c(I)c(OC)c1OC .
Response line: > 100 µM

Prompt line: In one line, give reported TGI of the entry Cc1nc2sc(C(=O)Nc3cccc(Cl)c3C)c(N)c2cc1C(C)O (stereo not drawn) .
Response line: > 80.8 µM

Prompt line: In one line, give reported TGI of the entry COc1cc(CC2CC(c3ccc4c(c3)OCO4)OC2=O)cc(OC)c1OC (stereo not drawn) .
Response line: > 100 µM

Prompt line: In one line, give reported TGI of the entry O=C(NC/C=C/Br)NC1CCNc2ccccc21 (stereo not drawn) .
Response line: > 100 µM

Prompt line: In one line, give reported TGI of the entry COC(=O)C1[C@H](C(=O)OC)C1(Br)CBr (stereo partly drawn) .
Response line: > 100 µM

Prompt line: In one line, give reported TGI of the entry CC1(C)N=C(N)N=C(N)N1c1ccc(OCCCOc2ccccc2)c(Cl)c1 .
Response line: 15.4 µM

Prompt line: In one line, give reported TGI of the entry Cc1cccc2c1C(=O)[C@@](C)([C@]1(C)Nc3cccc(C)c3C1=O)N2 .
Response line: > 100 µM

Prompt line: In one line, give reported TGI of the entry Cc1ccc(S(=O)(=O)N2CCN(CCO)CCN(S(=O)(=O)c3ccc(C)cc3)CCN(CCO)CC2)cc1 .
Response line: > 100 µM

Prompt line: In one line, give reported TGI of the entry COc1cccc(C2CC(=O)c3cccn32)c1 (stereo not drawn) .
Response line: > 100 µM

Prompt line: In one line, give reported TGI of the entry CCOC(=O)/C(C#N)=C(N)/C(=N\Nc1cccc(C(F)(F)F)c1)C(=O)OCC .
Response line: > 100 µM

Prompt line: In one line, give reported TGI of the entry Cc1ccc(SCC(O)=C2C(=O)CCCC2=O)cc1 .
Response line: > 100 µM

Prompt line: In one line, give reported TGI of the entry COc1ccc(NS(=O)c2cccc(C)c2)cc1 (stereo not drawn) .
Response line: > 100 µM

Prompt line: In one line, give reported TGI of the entry COC(=O)c1nn(C(=N)c2ccc(Cl)cc2)c2c1CCCCC2 .
Response line: > 100 µM

Prompt line: In one line, give reported TGI of the entry CCCCCCCCCCCCCCC(O)C1CCC(C(O)CCC(O)CCCCCC(O)CC2=CC(C)OC2=O)O1 (stereo not drawn) .
Response line: 7.27 µM

Prompt line: In one line, give reported TGI of the entry C=C(C)[C@@H]1CC[C@]2(C)[C@H](CC=C3[C@@H]4[C@H](C)[C@@H](C)CC[C@]4(CO)CC[C@]32C)[C@@]1(C)CCCN .
Response line: 18.3 µM

Prompt line: In one line, give reported TGI of the entry COc1ccc(C2NC(=O)Nc3c2c(=O)oc2c3ccc3ccccc32)cc1 (stereo not drawn) .
Response line: 96.9 µM
